Listing of entries alongside the reported CC50.
Tested on: MDCK cells
CONDITION_SUMMARY: dog
EXPERIMENTAL_READOUT: CC50

Cc1cccc(-c2ccn(-c3nc(N4CCOCC4)c4sc(CN5CCN(S(C)(=O)=O)CC5)cc4n3)n2)c1; > 150 µM
NC(=O)c1ncn([C@@H]2O[C@H](CO)[C@@H](O)[C@H]2O)n1 [ribavirin, reference compound]; > 1000 µM

---

ASSAY_SUMMARY: in vitro
CONDITION_SUMMARY: dog, mdck
EXPERIMENTAL_READOUT: CC50

Cc1cccc(-c2ccn(-c3nc(N4CCOCC4)c4sc(CN5CCN(S(C)(=O)=O)CC5)cc4n3)n2)c1; > 3000 nM
